These data points were gathered from patent US8071540B2.

tested on: Staphylococcus aureus; assay: Bacterial lysis (broth dilution) assay, MBC; format: cell-based; conditions: 0 mM NaCl (10 mM phosphate buffer); 99.9% killing
Where no end group is shown, it is not given here.
EXPERIMENTAL_READOUT: MBC, Staphylococcus aureus, 0 mM NaCl (µM)
Lab book: enter the figure in µM, no units written.

Guide cases for MBC, Staphylococcus aureus, 0 mM NaCl, answers given:
RVIRVVQRACRAIRHIVRRIRQGLRRILRVV [LSA-5, RVIRVVQRACRAIRHIVRRIRQGLRRILRVV] | 1
LLP1: prototypical lentiviral lytic peptide, amino acids 828-856 of the HIV-1 viral isolate HXB2R Env (SEQ ID NO: 19) (RVIEVVQGACRAIRHIPRRIRQGLERIL; Human immunodeficiency virus type 1) [reference compound] | 8
RRVVRRVRRVVRRVVRVVRRVVRRVRRVVRRVVRVVRRVVRR (RRVVRRVRRVVRRVVRVVRRVVRRVRRVVRRVVRVVRRVVRR; Antimicrobial peptide) [LBU-3.5] | 1

Asked: # get_value(readout='MBC, Staphylococcus aureus, 0 mM NaCl', item= RRWVRRVRRVWRRVVRVVRRWVRR [WLBU-2, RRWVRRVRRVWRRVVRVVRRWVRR] )
Given back: 1
